Biological target: T1, Amyloid Beta (Aβ) 1-42 (human)
T1 construct: The same peptide was used in several aggregation states: fibrils, a heterogeneous aggregate mixture, and soluble oligomers or aggregates; also called Aβ42; Aβ 42
T1 sequence (peptide, as listed by the source): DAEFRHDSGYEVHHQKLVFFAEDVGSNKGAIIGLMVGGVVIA
Assay: competition ELISA, plate coated with fibril Aβ42, competitor hBP-biotin; IC50 of test divided by IC50 of hBP
assayReadout: IC50 ratio (test:hBP)
# respond with the number and nothing more

# binder, reading
rows = [
    ("h2929 (antibody, V domains shown) VH: EVQLLESGGGLVQPGGSLRLSCAASGFTFSNFGMSWVRQAPGKGLEWVASVRSGSGRTYYSDNVKGRFTISRDNSKNTLYLQMNSLRAEDTAVYYCVRYDHYTGTSDYWGQGTLVTVSS VL: DVVMTQSPLSLPVTPGEPASISCRSSQSLVDYDGKTYLNWLLQRPGQSPQRLIYKVSNRDSGVPDRFSGSGSGTDFTLKISRVEAEDVGVYYCWQGSHFPRSYGQGTKVEIK", 1.16),
    ("h2926 (antibody, V domains shown) VH: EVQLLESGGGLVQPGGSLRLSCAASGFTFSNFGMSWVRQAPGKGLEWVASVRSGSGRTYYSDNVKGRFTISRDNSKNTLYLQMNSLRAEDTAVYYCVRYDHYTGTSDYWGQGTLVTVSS VL: DVVMTQSPLSLPVTPGEPASISCKSSQSLLDYDGKTYLNWLLQKPGQSPQRLIYKVSNRDSGVPDRFSGSGSGTDFTLKISRVEAEDVGVYYCWQGTHFPRTFGQGTKVEIK", 0.99),
    ("h4917G (antibody, V domains shown, also called h49_VK17) VH: EVQLLESGGGLVQPGGSLRLSCAASGFTFSNFGMSWVRQAPGKGLEWVASVRSGGGRTYYSDNVKGRFTISRDNSKNTLYLQMNSLRAEDTAVYYCVRYDHYSGTSDYWGQGTLVTVSS VL: DVVMTQSPLSLPVTLGEPASISCKSSQSLLDSDGKTYLNWLLQKPGQSPQRLIYKVTNRESGVPDRFSGSGSGTDFTLKISRVEAEDVGVYYCWQGTHFPRSFGQGTKVEIK", 2.69),
]

So what's the measured IC50 ratio (test:hBP) for this one? h2726 (antibody, V domains shown, Humanized IgG, detected with anti-human IgG) VH: EVQLLESGGGLVQPGGSLRLSCAASGFTFSNYGMSWVRQAPGKGLEWVASIRSGSGRTYYSDNVKGRFTISRDNSKNTLYLQMNSLRAEDTAVYYCVRYDHYSGSSDYWGQGTLVTVSS VL: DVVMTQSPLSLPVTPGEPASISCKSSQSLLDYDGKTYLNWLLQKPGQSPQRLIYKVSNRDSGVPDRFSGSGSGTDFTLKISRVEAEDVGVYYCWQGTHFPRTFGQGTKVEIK
0.68

Continue with h2931 (antibody, V domains shown, Humanized IgG) VH: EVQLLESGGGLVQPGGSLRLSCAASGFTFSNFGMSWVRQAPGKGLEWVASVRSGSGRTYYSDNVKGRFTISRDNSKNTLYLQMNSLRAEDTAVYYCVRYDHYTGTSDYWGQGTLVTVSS VL: DVVMTQSPLSLPVTLGEPASISCKSSQSLLDYDGKTYLNWLLQKPGQSPQRLIYRVTNRDTGVPDRFSGSGSGTDFTLKISRVEAEDVGVYYCWQGTHFPRSFGQGTKVEIK
0.59

Source: patent US20250179161A1
